target: calmodulin (Homo sapiens, UniProt P0DP23); assay: calcium-dependent phosphodiesterase assay (inhibition of calmodulin activity); details: concentration inhibiting 50% of calmodulin activity; assayed at 75 μM, 50 μM and 12.5 μM
Square brackets hold non-standard residues; d marks the D form. Peptide text beside a SMILES is read from it.
Measurement Kind: IC50 (µM)

- CC[C@@H](C)[C@@H](NC(=O)[C@@H](CCCNC(=N)N)NC(=O)[C@@H](Cc1c[nH]c2ccccc12)NC(=O)[C@@H](CC(C)C)NC(C)=O)C(=O)N[C@H](CC(C)C)C(=O)N[C@H](Cc1c[nH]c2ccccc12)C(N)=O (Ac-[dL][dW][dR][dI][dL][dW]-NH2): 15
- CC[C@@H](C)[C@@H](NC(=O)[C@@H](Cc1c[nH]c2ccccc12)NC(=O)[C@@H](CC(C)C)NC(C)=O)C(=O)N[C@@H](C(=O)N[C@H](CC(C)C)C(=O)N[C@H](CCCNC(=N)N)C(N)=O)[C@H](C)CC (Ac-[dL][dW][dI][dI][dL][dR]-NH2): 10

---

biological target: calmodulin (Homo sapiens); test: calcium-dependent phosphodiesterase assay (inhibition of calmodulin activity); type: biochemical; settings: inhibition of calmodulin activation of phosphodiesterase at 50 μM peptide; PDE without calmodulin = 100%, Calmo = 0%
Square brackets hold non-standard residues; d marks the D form. Peptide text beside a SMILES is read from it.
Listed here are compounds together with their documented inhibition at 50 µM.
Measurement Kind: inhibition at 50 µM (%)

- CC[C@@H](C)[C@@H](NC(=O)[C@@H](CCCNC(=N)N)NC(=O)[C@@H](Cc1c[nH]c2ccccc12)NC(=O)[C@@H](CC(C)C)NC(C)=O)C(=O)N[C@H](Cc1c[nH]cn1)C(=O)N[C@H](CCCNC(=N)N)C(N)=O (Ac-[dL][dW][dR][dI][dH][dR]-NH2): 68.4
- CC(=O)N[C@H](CC(C)C)C(=O)N[C@H](CCC(N)=O)C(=O)N[C@H](CCCNC(=N)N)C(=O)N[C@H](Cc1c[nH]cn1)C(=O)N[C@H](Cc1c[nH]cn1)C(=O)N[C@H](Cc1c[nH]c2ccccc12)C(N)=O (Ac-[dL][dQ][dR][dH][dH][dW]-NH2): 79

---

target: calmodulin (Homo sapiens); assay: calcium-dependent phosphodiesterase assay (inhibition of calmodulin activity); settings: concentration inhibiting 50% of calmodulin activity; assayed at 75 μM, 50 μM and 12.5 μM
Square brackets hold non-standard residues; d marks the D form. Peptide text beside a SMILES is read from it.
For each record, check the reported IC50: if it is below 20 µM write satisfied, else write not satisfied.

- CC[C@@H](C)[C@@H](NC(=O)[C@@H](CCCNC(=N)N)NC(=O)[C@@H](CCC(N)=O)NC(=O)[C@@H](CC(C)C)NC(C)=O)C(=O)N[C@H](Cc1c[nH]cn1)C(=O)N[C@H](CCCNC(=N)N)C(N)=O (Ac-[dL][dQ][dR][dI][dH][dR]-NH2): not satisfied
- CC[C@@H](C)[C@@H](NC(=O)[C@@H](CCCNC(=N)N)NC(=O)[C@@H](CCC(N)=O)NC(=O)[C@@H](CC(C)C)NC(C)=O)C(=O)N[C@H](Cc1c[nH]cn1)C(=O)N[C@H](Cc1c[nH]c2ccccc12)C(N)=O (Ac-[dL][dQ][dR][dI][dH][dW]-NH2): not satisfied
- CC[C@@H](C)[C@@H](NC(=O)[C@@H](CCCNC(=N)N)NC(=O)[C@@H](Cc1c[nH]c2ccccc12)NC(=O)[C@@H](CC(C)C)NC(C)=O)C(=O)N[C@H](Cc1c[nH]cn1)C(=O)N[C@H](CCCNC(=N)N)C(N)=O (Ac-[dL][dW][dR][dI][dH][dR]-NH2): not satisfied
- CC[C@@H](C)[C@@H](NC(=O)[C@@H](CCCNC(=N)N)NC(=O)[C@@H](Cc1c[nH]c2ccccc12)NC(=O)[C@@H](CC(C)C)NC(C)=O)C(=O)N[C@H](CC(C)C)C(=O)N[C@H](CCCNC(=N)N)C(N)=O (Ac-[dL][dW][dR][dI][dL][dR]-NH2): satisfied
- CC[C@@H](C)[C@@H](NC(=O)[C@@H](Cc1c[nH]c2ccccc12)NC(=O)[C@@H](CC(C)C)NC(C)=O)C(=O)N[C@H](Cc1c[nH]cn1)C(=O)N[C@H](CC(C)C)C(=O)N[C@H](CCCNC(=N)N)C(N)=O (Ac-[dL][dW][dI][dH][dL][dR]-NH2): satisfied
- CC[C@@H](C)[C@@H](NC(=O)[C@@H](Cc1c[nH]c2ccccc12)NC(=O)[C@@H](CC(C)C)NC(C)=O)C(=O)N[C@H](Cc1c[nH]cn1)C(=O)N[C@H](Cc1c[nH]cn1)C(=O)N[C@H](Cc1c[nH]c2ccccc12)C(N)=O (Ac-[dL][dW][dI][dH][dH][dW]-NH2): not satisfied
- CC[C@@H](C)[C@@H](NC(=O)[C@@H](CCC(N)=O)NC(=O)[C@@H](CC(C)C)NC(C)=O)C(=O)N[C@H](Cc1c[nH]cn1)C(=O)N[C@H](Cc1c[nH]cn1)C(=O)N[C@H](Cc1c[nH]c2ccccc12)C(N)=O (Ac-[dL][dQ][dI][dH][dH][dW]-NH2): not satisfied
- CC(=O)N[C@H](CC(C)C)C(=O)N[C@H](Cc1c[nH]c2ccccc12)C(=O)N[C@H](CCCNC(=N)N)C(=O)N[C@H](Cc1c[nH]cn1)C(=O)N[C@H](CC(C)C)C(=O)N[C@H](CCCNC(=N)N)C(N)=O (Ac-[dL][dW][dR][dH][dL][dR]-NH2): not satisfied
- CC[C@@H](C)[C@@H](NC(=O)[C@@H](Cc1c[nH]c2ccccc12)NC(=O)[C@@H](CC(C)C)NC(C)=O)C(=O)N[C@@H](C(=O)N[C@H](Cc1c[nH]cn1)C(=O)N[C@H](CCCNC(=N)N)C(N)=O)[C@H](C)CC (Ac-[dL][dW][dI][dI][dH][dR]-NH2): not satisfied
- CC[C@@H](C)[C@@H](NC(=O)[C@@H](CCCNC(=N)N)NC(=O)[C@@H](CCC(N)=O)NC(=O)[C@@H](CC(C)C)NC(C)=O)C(=O)N[C@H](CC(C)C)C(=O)N[C@H](CCCNC(=N)N)C(N)=O (Ac-[dL][dQ][dR][dI][dL][dR]-NH2): not satisfied

Reference source: patent US5624902A
